Measured %Inh, listed per entry.
# Test system: PIP5K2B
# condition details: concentration: 1 μM, replicates: in singlicate; n = 1
// return numeric value only (unit: %, not printed)

Some compounds with recorded %Inh:
{"columns": ["compound", "system name", "%Inh [%]"],
 "data": [
  ["Cl.c1ccc(Cn2ncc3cc(Nc4ncnc5ccccc45)ccc32)cc1 [GW273749]", "PIP5K2B", 10],
  ["COc1cc2ncnc(Nc3ccc(OCc4ccccc4Br)c(Cl)c3)c2cc1OC.Cl [GI261590]", "PIP5K2B", 11],
  ["C[C@@H]1CCN(C(=O)CO)C[C@@H]1N(C)c1ncnc2[nH]ccc12", "PIP5K2B", 0]
]}

Identify %Inh associated with the compound CCn1c(-c2ccncc2)nc2cnccc21 [SB-735216] 23

Input COc1ccc(Nc2nccc(N3CCC(NC(=O)Nc4ccc5c(c4)OCO5)C3)n2)cc1 (stereo not drawn) [GSK1379745] , output reported %Inh. 40

Look up and state reported %Inh for Cl.c1ccc(Cn2ccc3cc(Nc4ncnc5ccccc45)ccc32)cc1 [GW275568] 6

====

# Tested on: TAK1
# Construct: gene MAP3K7
# condition details: concentration: 1 μM, replicates: in singlicate; n = 1
Items are presented alongside their recorded %Inh.
Give the value, in units of %, as a plain number.

Use these answered entries as a reference point.
{"columns": ["item smiles", "%Inh / %"],
 "data": [
  ["Cn1ccc2ncnc(Oc3ccc(NC(=O)Nc4cccnc4)c(Cl)c3)c21", 12],
  ["O=C(c1ccc(-c2cc(-c3c[nH]nc3-c3ccccn3)ccn2)cc1)N1CCCC1", 0],
  ["Cc1ccc(NC(=O)c2cccc(C#N)c2)cc1-c1ccc(C(=O)Nc2ccncc2)cc1", 0],
  ["Fc1cccc(COc2ccc(Nc3ncnc4cc[nH]c34)cc2Cl)c1", 8]
]}

Report value only: %Inh, TAK1, Cl.O=S(=O)(c1cccc(F)c1)c1ccc(Nc2ncnc3cc(Br)sc23)cc1Cl 0

====

# System: MEK3
# Construct: gene MAP2K3
# condition details: concentration: 1 μM, replicates: in singlicate; n = 1
recorded metric: %Inh (%)
State the answer as a number, implicitly in %.

Here is how some molecules turned out for %Inh.
{"columns": ["item smiles", "system name", "%Inh [%]"],
 "data": [
  ["Cl.Cn1ccc(-c2cccc(Nc3ccnc4cc(-c5nccs5)ccc34)c2)n1", "MEK3", 0],
  ["CCC(CC)(CC)n1cnc2c(N)ncnc21", "MEK3", 36],
  ["FC(F)(F)c1cc(Nc2nccc(-c3c(-c4ccc(Cl)cc4)nn4ncccc34)n2)ccc1Cl", "MEK3", 0],
  ["Nc1nc(-c2cccnc2)c(-c2ccnc3ccccc23)s1", "MEK3", 0],
  ["Fc1ccc(-c2ncn(CCCNCc3ccccc3)c2-c2ccncc2)cc1", "MEK3", 30]
]}

Read off the recorded %Inh for CCc1nc(-c2cccc(C)c2)c(-c2ccnc(NC(=O)c3ccccc3)c2)s1 7

====

# collection of pKd values tested on EPHB6;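 note: kd values determined as follow-up on hits from a single-replicate KINOMEscan panel screen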
When answering, recall that pKd equals minus log10 of the concentration in mol/L, and write that number alone.

Before answering, review these 2 worked examples.
{"columns": ["compound", "system name", "val"],
 "data": [
  ["Cl.Cn1ccc(-c2cccc(Nc3ccnc4cc(-c5nccs5)ccc34)c2)n1 [GW525701]", "EPHB6", 7.09],
  ["CCc1nc(-c2cccc(C)c2)c(-c2ccnc(NC(=O)c3ccccc3)c2)s1", "EPHB6", 5.12]
]}

With those in mind, consider the next compound.
State recorded pKd with EPHB6, entry CCc1nc(-c2cccc(N(C)S(=O)(=O)c3ccccc3)c2)c(-c2ccnc(Nc3ccc(N4CCN(C(C)=O)CC4)nc3)n2)s1 [GSK1645895] , no comment. 7.62
